abundance fitness: recorded values
B1: Dystrobrevin alpha, residues 235 to 294; numbered along this chain, Q9Y4J8 (parent)
chain: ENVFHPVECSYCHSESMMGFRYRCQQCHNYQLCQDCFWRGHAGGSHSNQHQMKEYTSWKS

variants of: B1; assay: abundance fitness (aPCA) (normalised: wild type 0, dead -1); higher = more abundant; growth selection in yeast, the domain comes from the species named; details: Homo sapiens
Please state the value as a number alone, without comment.

Sample `F20H` ; abundance fitness observed: 0.151
